# Measured Target: Histone deacetylase 2 (Homo sapiens)
# Sequence (Q92769 whole entry): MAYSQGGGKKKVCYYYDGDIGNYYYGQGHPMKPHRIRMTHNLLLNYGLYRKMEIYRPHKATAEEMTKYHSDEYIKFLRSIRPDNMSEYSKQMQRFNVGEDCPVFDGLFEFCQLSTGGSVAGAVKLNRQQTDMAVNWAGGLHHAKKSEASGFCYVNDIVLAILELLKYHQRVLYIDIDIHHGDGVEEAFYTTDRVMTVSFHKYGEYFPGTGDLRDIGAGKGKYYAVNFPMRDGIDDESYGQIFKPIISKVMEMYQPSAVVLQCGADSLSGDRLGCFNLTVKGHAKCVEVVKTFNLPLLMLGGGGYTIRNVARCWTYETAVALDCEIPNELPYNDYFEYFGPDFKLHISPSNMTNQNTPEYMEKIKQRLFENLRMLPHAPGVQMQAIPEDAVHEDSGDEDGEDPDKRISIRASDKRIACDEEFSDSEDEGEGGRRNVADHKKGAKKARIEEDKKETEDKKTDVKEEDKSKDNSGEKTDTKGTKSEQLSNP
# Assay Details: Inhibition of full-length recombinant human C-terminal GST tagged HDAC2 expressed in Sf9 insect cells using aminoluciferin peptide substrate at 100 nM preincubated for 3 hrs followed by substrate addition and measured after 30 mins by HDAC-Glo I/II chemiluminescence assay
# Setup Conditions: time 3.5 hrs
Measured inhibition of individual entries
Unit % implied. Number only.

Please review the following examples before continuing.
- Smiles Record: "Nc1ccc(-n2cc(CCC(=O)Nc3cc(-c4cccnc4)ccc3N)nn2)cc1"
  Unit Of Measurement: "%"
  inhibition: 5
- Smiles Record: "Nc1ccc(-c2cccnc2)cc1NC(=O)CCc1cn(Cc2ccc3ccccc3c2)nn1"
  Unit Of Measurement: "%"
  inhibition: 19
- Smiles Record: "Nc1ccc(-c2ccc(F)cc2)cc1NC(=O)CCc1cn(-c2ccccc2-c2ccccc2)nn1"
  Unit Of Measurement: "%"
  inhibition: 8
- Smiles Record: "Nc1ccc(-c2cccs2)cc1NC(=O)c1ccc(-c2cn(Cc3ccc(Oc4ccccc4)cc3)nn2)cc1"
  Unit Of Measurement: "%"
  inhibition: 0

We now examine a further molecule.
In: Param readout= inhibition; system= Histone deacetylase 2 (Homo sapiens); entry= Nc1ccc(-c2ccsc2)cc1NC(=O)CCc1cn(CCN2CCOCC2)nn1 ; returns value.
Out: 0
